The measurements presented in this section are drawn from ChEMBL document CHEMBL3734693.

Target: Interleukin-1 receptor-associated kinase 4 (Homo sapiens, UniProt Q9NWZ3)
Assay: Inhibition of recombinant full length IRAK-4 (unknown origin) using the biotinylated substrate RRRVTSPARRS by chemiluminescent ELISA
just bin them by Ki: lo (below 1 nM), med (1 nM to below 6 nM), hi (6 nM or more)

O=C(Nc1nc2cc(CN3CCCCC3)ccc2n1-c1ccccc1)c1cccc([N+](=O)[O-])c1: hi

Quick check: band for CC(C)(C)C(=O)Nc1ccc2c(c1)nc(NC(=O)c1cccc(C(F)(F)F)c1)n2[C@H]1CC[C@@H](CO)CC1
lo

Quick check: band for O=C(Nc1nc2cc(F)ccc2n1[C@H]1CC[C@@H](CO)CC1)c1cccc([N+](=O)[O-])c1
med

---

Target: Interleukin-1 receptor-associated kinase 4 (Homo sapiens, UniProt Q9NWZ3)
Sequence (Q9NWZ3 whole entry): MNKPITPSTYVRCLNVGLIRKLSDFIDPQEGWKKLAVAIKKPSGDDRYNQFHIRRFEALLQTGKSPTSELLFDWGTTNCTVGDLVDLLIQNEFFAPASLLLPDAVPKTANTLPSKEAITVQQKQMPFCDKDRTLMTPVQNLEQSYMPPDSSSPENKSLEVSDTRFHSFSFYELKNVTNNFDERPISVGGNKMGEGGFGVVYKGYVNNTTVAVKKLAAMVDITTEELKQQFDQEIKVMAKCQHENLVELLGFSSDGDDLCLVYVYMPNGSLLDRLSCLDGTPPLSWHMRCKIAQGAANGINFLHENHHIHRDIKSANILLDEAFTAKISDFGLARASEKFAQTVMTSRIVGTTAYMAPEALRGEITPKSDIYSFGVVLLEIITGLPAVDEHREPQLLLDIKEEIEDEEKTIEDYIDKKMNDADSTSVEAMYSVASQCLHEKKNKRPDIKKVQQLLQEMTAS
Test: Inhibition of recombinant full length IRAK-4 (unknown origin) using the biotinylated substrate RRRVTSPARRS by chemiluminescent ELISA
Under this convention, 1 (yes) denotes Ki strictly below 3 nM and 0 (no) denotes Ki at or above 3 nM.

Use the examples below as a reference point.
O=C(Nc1nc2cc(CN3CCCCC3)ccc2n1-c1ccccc1)c1cccc(C(F)(F)F)c1: 1 (yes)
O=C(Nc1nc2cc(CN3CCCCC3)ccc2n1-c1ccc(CCO)cc1)c1cccc(C(F)(F)F)c1: 1 (yes)

Consider O=C(Nc1nc2cc(F)ccc2n1[C@H]1CC[C@H](O)CC1)c1cccc([N+](=O)[O-])c1 . Does its Ki lie strictly below 3 nM?
0 (no)

---

Target: UniProt Q9NWZ3
Assay: Inhibition of recombinant full length IRAK-4 (unknown origin) using the biotinylated substrate RRRVTSPARRS by chemiluminescent ELISA
recorded_endpoint: Ki (nM)
Kindly answer with a numeric value in nM, unit omitted.

These solved cases illustrate the format of a correct answer.
O=C(Nc1nc2cc(CN3CCCCC3)ccc2n1[C@H]1CC[C@H](O)CC1)c1cccc([N+](=O)[O-])c1: 2.8
O=C(Nc1nc2cc(F)ccc2n1[C@H]1CC[C@H](CO)CC1)c1cccc([N+](=O)[O-])c1: 6.4
O=C(Nc1nc2cc(CN3CCCCC3)ccc2n1[C@H]1CC[C@@H](CO)CC1)c1cccc([N+](=O)[O-])c1: 0.7
O=C(Nc1nc2ccc(F)cc2[nH]1)c1cccc([N+](=O)[O-])c1: 4500

Next:
What value of measured Ki is listed for O=C(Nc1nc2cc(CN3CCCC3=O)ccc2n1[C@H]1CC[C@H](O)CC1)c1cccc([N+](=O)[O-])c1 ?
0.5
